# System: c-Src kinase (Homo sapiens)
# Construct: purchased Millipore (KinaseProfiler Service)
# Sequence (P12931 whole entry): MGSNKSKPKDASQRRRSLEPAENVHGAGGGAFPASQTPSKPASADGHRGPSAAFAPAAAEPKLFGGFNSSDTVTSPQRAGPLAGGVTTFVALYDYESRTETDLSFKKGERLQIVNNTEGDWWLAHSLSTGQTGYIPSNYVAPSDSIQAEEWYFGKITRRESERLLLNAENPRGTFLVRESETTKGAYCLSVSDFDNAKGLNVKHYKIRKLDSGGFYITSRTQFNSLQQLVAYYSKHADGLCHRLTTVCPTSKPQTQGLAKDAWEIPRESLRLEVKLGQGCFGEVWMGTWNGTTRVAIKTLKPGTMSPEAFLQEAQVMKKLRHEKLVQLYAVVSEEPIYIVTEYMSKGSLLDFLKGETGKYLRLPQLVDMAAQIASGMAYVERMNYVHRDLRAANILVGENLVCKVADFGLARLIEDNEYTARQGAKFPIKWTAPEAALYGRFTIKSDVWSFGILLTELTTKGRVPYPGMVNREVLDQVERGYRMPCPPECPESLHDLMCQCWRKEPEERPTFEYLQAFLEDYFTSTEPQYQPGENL
# Assay Remarks: KinaseProfiler kinase inhibition assay, c-Src
# Assay type: biochemical
# Condition Context: 1 μM compound; read-out: % Inhibition @1 μM cSrc
Readout Label: inhibition at 1 µM (%)

Cc1cc2c(F)c(Oc3ncnc(Nc4ccc(N5CCN(C)CC5)cc4)c3C#N)ccc2[nH]1; 8
Cc1cc2c(F)c(Oc3ncnc(Nc4ccc(N5CCN(C)CC5)cn4)c3N)ccc2[nH]1; -6
Cc1cc2c(F)c(Oc3cc(Nc4ccc(N5CCNCC5)cc4)ncn3)cc(F)c2[nH]1; 70

P = CC(=O)Nc1ccc(Nc2cc(Oc3ccc4[nH]c(C)cc4c3F)ncn2)cc1
Q = Cc1cc2c(F)c(Oc3cc(Nc4cc(-c5ccccn5)[nH]n4)ncn3)ccc2[nH]1
Q: Identify the entry with the larger inhibition at 1 µM. Options: P and Q Indicate your choice by writing its label.
Ans: Q
